So I've got a bunch of compounds here, and I need their inhibition values.
# Study Target: Serine/threonine-protein kinase Chk2 (Homo sapiens) (UniProt O96017)
# Sequence (O96017 whole entry): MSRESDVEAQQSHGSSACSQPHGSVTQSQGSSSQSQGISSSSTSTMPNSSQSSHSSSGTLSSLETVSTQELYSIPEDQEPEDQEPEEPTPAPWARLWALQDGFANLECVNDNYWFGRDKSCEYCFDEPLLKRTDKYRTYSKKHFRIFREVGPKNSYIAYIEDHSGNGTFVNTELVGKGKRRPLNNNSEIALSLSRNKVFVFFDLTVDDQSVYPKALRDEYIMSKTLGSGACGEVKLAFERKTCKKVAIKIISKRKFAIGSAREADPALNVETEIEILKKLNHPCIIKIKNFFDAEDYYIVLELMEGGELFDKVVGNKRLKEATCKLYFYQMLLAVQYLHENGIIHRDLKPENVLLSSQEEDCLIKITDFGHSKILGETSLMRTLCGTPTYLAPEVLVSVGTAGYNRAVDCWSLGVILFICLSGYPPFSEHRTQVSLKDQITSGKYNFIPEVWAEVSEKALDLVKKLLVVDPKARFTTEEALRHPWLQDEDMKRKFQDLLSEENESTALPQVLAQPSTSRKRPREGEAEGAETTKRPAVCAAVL
# Condition Summary: at 0.1 µM
# Description: GSK_PKIS: CHEK2 mean inhibition at 0.1 uM [Nanosyn]
Reply with just the number (in %).

Input line: Can you share its inhibition? I mean this compound: `CCn1c(-c2nonc2N)nc2cnc(Oc3cccc(NC(=O)c4ccc(N(C)C)cc4)c3)cc21`
Output line: 1.31

Input line: Also check `CN1CCC(n2cnc(-c3ccc(F)cc3)c2-c2ccnc(N)n2)CC1`
Output line: 1.28

Input line: Next record, please: `COc1ccc(-c2oc3ncnc(N)c3c2-c2ccc(NC(=O)Nc3cc(C(F)(F)F)ccc3F)cc2)cc1`
Output line: 2.06

Input line: Try the compound `Cc1cccc2c1NC(=O)/C2=N\Nc1ccc(S(N)(=O)=O)cc1`
Output line: 1.68

Input line: Another compound to check: `CCOc1ccc2c(-c3ccnc(Nc4cccc(C(F)(F)F)c4)n3)cnn2n1`
Output line: 1.55

Input line: Try the compound `O=S(=O)(CCNCc1ccc(-c2ccc3ncnc(Nc4ccc(OCc5cccc(F)c5)c(Cl)c4)c3c2)o1)c1ccccc1`
Output line: 2.55

Input line: Check `CCN1CCC(CC(=O)Nc2n[nH]c3nnc(-c4cccc(F)c4F)cc23)CC1` too.
Output line: 1.92

Input line: Follow-up entry: `CN1CCC(n2cnc(-c3ccc(F)cc3)c2-c2ccnc(Nc3ccccc3)n2)CC1`
Output line: 1.2

Input line: // next record `c1ccc(-c2nc3n(c2-c2ccc4c(c2)OCO4)CCC3)nc1`
Output line: -0.09

Input line: Similarly, `Cc1ccc2c(-c3ccnc(Nc4ccccc4)n3)c(-c3ccc(F)cc3)nn2n1` ?
Output line: 2.15

Input line: # iterate: `CCc1nn2ncccc2c1-c1ccnc(NC2CC2)n1`
Output line: 1.64

Input line: Here is the next compound: `COc1ccc(-c2cc(-c3c[nH]nc3-c3ccccn3)ccn2)cc1`
Output line: 3.42

Input line: Next record, please: `O=C(Nc1n[nH]c2cc(-c3ccc(F)cc3)ccc12)C1CC1`
Output line: 6.26

Input line: Same for `COc1ccc2[nH]c3c4[nH]c5ccc(OC)cc5c4c4c(c3c2c1)C(=O)NC4=O`
Output line: 81.2

Input line: What about this compound? `Nc1ncc(-c2cccc(S(N)(=O)=O)c2)c2scc(-c3ccc(F)c(Cl)c3)c12`
Output line: 3.46

Input line: Query `CNC(=O)c1cccc(C#Cc2cncnc2Nc2ccc(OCc3cccc(F)c3)c(Cl)c2)c1` next
Output line: 0.62

Input line: Item: `Fc1ccc(-c2nn3ncccc3c2-c2ccnc(Nc3ccc4c(c3)OCCO4)n2)cc1`
Output line: 3.9

Input line: Thanks! And `N#Cc1c(NC(=O)c2ccc(F)cc2)sc2c1CCCC2` ?
Output line: -0.21

Input line: Next up: `NC(=O)c1sc(-n2cnc3ccc(C(F)(F)F)cc32)cc1OCc1ccccc1Br`
Output line: 2.54

Input line: And the next one, `Clc1ccc(-c2nn3ncccc3c2-c2ccnc(Nc3ccccc3)n2)cc1` ?
Output line: 0.52

Input line: Here is the next compound: `CNC(=O)c1cncc(/C=C/c2ccccc2Cl)c1`
Output line: -0.6
